Provenance of the data: patent US20260258124A1

We begin with a simple list: items and their reported IC50, inhibition of SCF-dependent proliferation of TF-1 cells (CellTiter-Glo), Average.
# test system: CD117 on wild-type cells (TF-1 cells, HSPCs, HSCs) (human, UniProt P10721 26-976)
# Sequence (P10721 26-976 limits assumed): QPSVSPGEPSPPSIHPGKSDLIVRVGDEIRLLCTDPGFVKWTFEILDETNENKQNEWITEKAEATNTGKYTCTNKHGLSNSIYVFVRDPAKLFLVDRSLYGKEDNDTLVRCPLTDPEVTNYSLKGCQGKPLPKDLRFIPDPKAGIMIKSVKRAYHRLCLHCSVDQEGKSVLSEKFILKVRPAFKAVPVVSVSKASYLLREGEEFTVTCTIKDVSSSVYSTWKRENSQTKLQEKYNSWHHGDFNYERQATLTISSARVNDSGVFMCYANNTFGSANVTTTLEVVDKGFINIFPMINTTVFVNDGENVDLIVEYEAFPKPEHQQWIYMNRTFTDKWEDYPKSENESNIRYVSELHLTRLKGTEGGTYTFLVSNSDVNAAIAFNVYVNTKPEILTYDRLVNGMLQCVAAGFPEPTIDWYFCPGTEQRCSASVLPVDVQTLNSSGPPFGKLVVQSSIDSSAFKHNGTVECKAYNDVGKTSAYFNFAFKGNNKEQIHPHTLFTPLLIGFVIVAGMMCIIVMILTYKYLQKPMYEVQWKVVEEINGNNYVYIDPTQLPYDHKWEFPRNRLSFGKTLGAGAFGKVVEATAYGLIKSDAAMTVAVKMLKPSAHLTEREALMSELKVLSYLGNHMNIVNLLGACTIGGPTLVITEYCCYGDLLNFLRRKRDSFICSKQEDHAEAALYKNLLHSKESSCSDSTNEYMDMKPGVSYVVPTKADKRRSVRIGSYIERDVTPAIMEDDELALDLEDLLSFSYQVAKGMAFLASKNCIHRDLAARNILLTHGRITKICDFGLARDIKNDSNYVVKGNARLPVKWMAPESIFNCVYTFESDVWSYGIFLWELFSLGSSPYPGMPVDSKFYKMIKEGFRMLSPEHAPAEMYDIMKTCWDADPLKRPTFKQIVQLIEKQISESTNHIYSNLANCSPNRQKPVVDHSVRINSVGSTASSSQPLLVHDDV
# measurement notes: cell-based or functional assay
# unit: µg/mL | format: bare number

Example binders with recorded IC50, inhibition of SCF-dependent proliferation of TF-1 cells (CellTiter-Glo), Average:
Field IC50, inhibition of SCF-dependent proliferation of TF-1 cells (CellTiter-Glo), Average (entry Bietschhorn (antibody, V domains shown, IgG; also called VH1/VL1.29) VH: QVQLVQSGAEVKKPGASVKVSCKASGYTFTSYNMHWVRQAPGQGLEWMGVIYSGNGDTSYNQKFKGRVTMTTDTSTSTAYMELRSLTSDDTAVYYCARERDTRFGNWGQGTLVTVSA VL: EIVLTQSPSSLSASVGDRVTITCRASESVDIYGESFMHWYQQKPGKAPKLLIYLASNLESGVPSRFSGSGSGTDFTLTISSLQPEDFATYYCQQNREEPYTFGQGTKLEIKR ) reads 0.151

Field IC50, inhibition of SCF-dependent proliferation of TF-1 cells (CellTiter-Glo), Average (entry Dufour (antibody, V domains shown, IgG; also called VH1/VL1; HC1 LC1) VH: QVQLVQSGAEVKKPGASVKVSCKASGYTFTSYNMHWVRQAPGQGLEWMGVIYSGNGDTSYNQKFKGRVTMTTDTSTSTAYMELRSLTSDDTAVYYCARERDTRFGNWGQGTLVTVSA VL: EIVLTQSPSSLSASVGDRVTITCRASESVDIYGNSFMHWYQQKPGKAPKLLIYLASNLESGVPSRFSGSGSGTDFTLTISSLQPEDFATYYCQQNNEDPYTFGQGTKLEIK ) reads 0.22

Turning now to a further record.
Field IC50, inhibition of SCF-dependent proliferation of TF-1 cells (CellTiter-Glo), Average (entry FSI-174 (antibody, human IgG1, V domains shown) VH: QVQLVQSGAEVKKPGASVKVSCKASGYTFTSYNMHWVRQAPGQGLEWMGVIYSGNGDTSYAQKFQGRVTITADKSTSTAYMELSSLRSEDTAVYYCARERDTRFGNWGQGTLVTVSS VL: DIVMTQSPLSLPVTPGEPASISCRASESVDIYGQSFMHWYLQKPGQSPQLLIYLASNLESGVPDRFSGSGSGTDFTLKISRVEAEDVGVYYCQQNNEDPYTFGGGTKVEIK ) reads 0.0473
